Answer each item with its documented protein stability index.
B1: FANCE (parent)
chain: AQVLMLGQILELPWKEETFLVLQS

Variants of: B1
Assay: protein stability index of a GFP-peptide fusion (GPS, HEK-293T) (PSI 1-6); higher = more stable;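 note: lentivirally expressed fusions sorted by FACS into six bins by GFP to DsRed ratio, PSI derived from sequencing read proportions per bin multiplied by bin number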
Settings: c terminus: a fixed tail appended
Numbers only.

Variant id: G7E
protein stability index: 3.09
//
Variant id: E16F
protein stability index: 4.03
//
Variant id: W14K
protein stability index: 1.96
//
Variant id: L12Y
protein stability index: 2.6
//
Variant id: E16T
protein stability index: 3.35

# map each variant to its protein stability index
1. F19H
2. L20M
3. Q2G
4. P13Q

1: 3.46; 2: 1.73; 3: 2.21; 4: 2.39
